Hello, the source for this data is the supplement of paper PMC11061612, in case you need it.

# Tested on: G-402 (Other Solid Carcinomas)
# METHOD: Bliss excess, mean over the matrix (fraction); higher = more synergy
REPORTED METRIC: Bliss excess
Give bare numbers.

* Cc1cc2ncnn2cc1Nc1ncc2c(n1)n(C1CCOCC1)c(=O)n2C [AZD7648] + C=CCn1c(=O)c2cnc(Nc3ccc(N4CCN(C)CC4)cc3)nc2n1-c1cccc(C(C)(C)O)n1 [AZD1775] (first compound max 10 µM, partner max 1 µM) | 0.0111

Prompt line: # value lookup — system G-402 (Other Solid Carcinomas), readout Bliss excess, item CN(C)CCCOc1ccc(-c2ccc3ncc4c(c3c2)n(C2CCOCC2)c(=O)n4C)cn1 [AZD0156] + CCN(CCO)CCCOc1ccc2c(Nc3cc(CC(=O)Nc4cccc(F)c4)[nH]n3)ncnc2c1 [AZD2811] (first compound max 1 µM, 7x7, partner max 1 µM)
Response line: -0.0111

----------
# Test system: HCC1395 (Breast Carcinoma)
# METHOD: Bliss excess, mean over the matrix (fraction); higher = more synergy
Give Bliss excess for every item shown.
Numbers only.

- CC(=O)c1c(C)c2cnc(Nc3ccc(N4CCNCC4)cn3)nc2n(C2CCCC2)c1=O [Palbociclib] + CC1(C)CCC(CN2CCN(c3ccc(C(=O)NS(=O)(=O)c4ccc(NCC5CCOCC5)c([N+](=O)[O-])c4)c(Oc4cnc5[nH]ccc5c4)c3)CC2)=C(c2ccc(Cl)cc2)C1 [Venetoclax] (first compound max 10 µM, 7x7, partner max 1 µM): -0.0472

The record that follows has no Bliss excess shown yet.
Prompt line: # value lookup — system HCC1395 (Breast Carcinoma), readout Bliss excess, item CC1(C)CCC(CN2CCN(c3ccc(C(=O)NS(=O)(=O)c4ccc(NCC5CCOCC5)c([N+](=O)[O-])c4)c(Oc4cnc5[nH]ccc5c4)c3)CC2)=C(c2ccc(Cl)cc2)C1 [Venetoclax] + COc1cc(Nc2ncc3c(n2)-c2ccc(Cl)cc2C(c2c(F)cccc2OC)=NC3)ccc1C(=O)O [Alisertib] (first compound max 1 µM, 7x7, partner max 10 µM)
Response line: -0.0147

----------
# Tested on: A2780 (Ovarian Carcinoma)
# METHOD: combination Emax (second highest fraction inhibited in the dose matrix, 72 h); higher = more inhibition; extreme values may be limits of the assay
REPORTED METRIC: combination Emax
Answers are plain numbers.

* COc1nnc2ccc(N3CCC(c4ccc(OCCN5CCN(C)C(=O)[C@H]5C)cc4)CC3)nn12 [AZD5153] + C[C@@H]1COCCN1C2=NC(=NC(=C2)C3(CC3)[S@](=N)(=O)C)C4=C5C=CNC5=NC=C4 [AZD6738] (first compound max 1 µM, 7x7, partner max 10 µM) | 0.848
* CC1(C)CCC(CN2CCN(c3ccc(C(=O)NS(=O)(=O)c4ccc(NCC5CCOCC5)c([N+](=O)[O-])c4)c(Oc4cnc5[nH]ccc5c4)c3)CC2)=C(c2ccc(Cl)cc2)C1 [Venetoclax] + C[C@@H](Nc1cc(F)cc(F)c1)c1cc(C(=O)N(C)C)cc2c(=O)cc(N3CCOCC3)oc12 [AZD8186] (first compound max 1 µM, 7x7, partner max 3 µM) | 0.472

The record that follows has no combination Emax shown yet.
Prompt line: // combination Emax lookup, key: NC1(C(=O)N[C@@H](CCO)c2ccc(Cl)cc2)CCN(c2ncnc3[nH]ccc23)CC1 [Capivasertib] + CCN(CCO)CCCOc1ccc2c(Nc3cc(CC(=O)Nc4cccc(F)c4)[nH]n3)ncnc2c1 [AZD2811] (first compound max 10 µM, 7x7, partner max 1 µM)
Response line: 0.812

----------
Give Bliss excess for every item shown.
# Test system: UACC-812 (Breast Carcinoma)
# METHOD: Bliss excess, mean over the matrix (fraction); higher = more synergy

* C[C@@H](Oc1cc(-c2cnn(C3CCNCC3)c2)cnc1N)c1c(Cl)ccc(F)c1Cl [Crizotinib] + CC1=C(C(=CC=C1)Cl)NC(=O)C2=CN=C(S2)NC3=CC(=NC(=N3)C)N4CCN(CC4)CCO [Dasatinib] (first compound max 10 µM, 7x7, partner max 2 µM) | -0.0135
* CC1(C)CCC(CN2CCN(c3ccc(C(=O)NS(=O)(=O)c4ccc(NCC5CCOCC5)c([N+](=O)[O-])c4)c(Oc4cnc5[nH]ccc5c4)c3)CC2)=C(c2ccc(Cl)cc2)C1 [Venetoclax] + CN(C)CCCOc1ccc(-c2ccc3ncc4c(c3c2)n(C2CCOCC2)c(=O)n4C)cn1 [AZD0156] (first compound max 1 µM, 7x7, partner max 1 µM) | -0.016
* CC1(C)CCC(CN2CCN(c3ccc(C(=O)NS(=O)(=O)c4ccc(NCC5CCOCC5)c([N+](=O)[O-])c4)c(Oc4cnc5[nH]ccc5c4)c3)CC2)=C(c2ccc(Cl)cc2)C1 [Venetoclax] + C[C@@H](Nc1cc(F)cc(F)c1)c1cc(C(=O)N(C)C)cc2c(=O)cc(N3CCOCC3)oc12 [AZD8186] (first compound max 1 µM, 7x7, partner max 3 µM) | -0.0319

Answer for every listed entry: what is its Bliss excess? The entries follow.
1. COc1nnc2ccc(N3CCC(c4ccc(OCCN5CCN(C)C(=O)[C@H]5C)cc4)CC3)nn12 [AZD5153] + Cc1c2c(nn1C)CSCc1cc(n(C)n1)CSc1cc(c3ccccc3c1)OCCCc1c(C(=O)O)n(C)c3c-2c(Cl)ccc13 [AZD5991] (first compound max 1 µM, 7x7, partner max 1 µM)
2. COc1cccc(OCCCN)c1-c1cc(Nc2cnc(C#N)cn2)n[nH]1 [Prexasertib] + C=CCn1c(=O)c2cnc(Nc3ccc(N4CCN(C)CC4)cc3)nc2n1-c1cccc(C(C)(C)O)n1 [AZD1775] (first compound max 1 µM, partner max 1 µM)
3. Cc1nc(-c2cn3c(n2)-c2ccc(-c4cnn(C(C)(C)C(N)=O)c4)cc2OCC3)n(C(C)C)n1 [Taselisib] + O=C(Nc1ccc2[nH]nc(-c3ccncc3)c2c1)[C@@H]1CCN(CC(=O)N2CCN(c3ccc(-c4ncccn4)cc3)CC2)C1 [SCH772984] (first compound max 10 µM, 7x7, partner max 5 µM)
4. CN(CCO)CC[C@H](CSc1ccccc1)Nc1ccc(S(=O)(=O)NC(=O)c2ccc(N3CCC([C@@H](O)c4ccccc4-c4ccc(Cl)cc4)CC3)cc2)cc1S(=O)(=O)C(F)(F)F [AZD4320] + Cc1cc2ncnn2cc1Nc1ncc2c(n1)n(C1CCOCC1)c(=O)n2C [AZD7648] (first compound max 1 µM, 7x7, partner max 10 µM)

Response line:
1: 0.0365; 2: 0.0705; 3: 0.0095; 4: -0.0342

----------
# Test system: LU-165 (Small Cell Lung Carcinoma)
# METHOD: combination Emax (second highest fraction inhibited in the dose matrix, 72 h); higher = more inhibition; extreme values may be limits of the assay
REPORTED METRIC: combination Emax

- NC1(C(=O)N[C@@H](CCO)c2ccc(Cl)cc2)CCN(c2ncnc3[nH]ccc23)CC1 [Capivasertib] + C[C@@H]1COCCN1C2=NC(=NC(=C2)C3(CC3)[S@](=N)(=O)C)C4=C5C=CNC5=NC=C4 [AZD6738] (first compound max 10 µM, 7x7, partner max 10 µM): 0.657

The record that follows has no combination Emax shown yet.
Prompt line: // combination Emax lookup, key: CN(CCO)CC[C@H](CSc1ccccc1)Nc1ccc(S(=O)(=O)NC(=O)c2ccc(N3CCC([C@@H](O)c4ccccc4-c4ccc(Cl)cc4)CC3)cc2)cc1S(=O)(=O)C(F)(F)F [AZD4320] + C=CCn1c(=O)c2cnc(Nc3ccc(N4CCN(C)CC4)cc3)nc2n1-c1cccc(C(C)(C)O)n1 [AZD1775] (first compound max 1 µM, partner max 1 µM)
Response line: 0.681

----------
# Test system: NB13 (Neuroblastoma)
# METHOD: Bliss excess, mean over the matrix (fraction); higher = more synergy
REPORTED METRIC: Bliss excess
One number for each entry.

* NC1(C(=O)N[C@@H](CCO)c2ccc(Cl)cc2)CCN(c2ncnc3[nH]ccc23)CC1 [Capivasertib] + CC(=O)c1c(C)c2cnc(Nc3ccc(N4CCNCC4)cn3)nc2n(C2CCCC2)c1=O [Palbociclib] (first compound max 10 µM, 7x7, partner max 10 µM) | -0.076
* CN(CCO)CC[C@H](CSc1ccccc1)Nc1ccc(S(=O)(=O)NC(=O)c2ccc(N3CCC([C@@H](O)c4ccccc4-c4ccc(Cl)cc4)CC3)cc2)cc1S(=O)(=O)C(F)(F)F [AZD4320] + CS(=O)(=O)CCNCc1ccc(-c2ccc3ncnc(Nc4ccc(OCc5cccc(F)c5)c(Cl)c4)c3c2)o1 [Lapatinib] (first compound max 1 µM, 7x7, partner max 10 µM) | 0.0537
* COc1nnc2ccc(N3CCC(c4ccc(OCCN5CCN(C)C(=O)[C@H]5C)cc4)CC3)nn12 [AZD5153] + C=CCn1c(=O)c2cnc(Nc3ccc(N4CCN(C)CC4)cc3)nc2n1-c1cccc(C(C)(C)O)n1 [AZD1775] (first compound max 1 µM, partner max 1 µM) | -0.0645
* CC1(C)CCC(CN2CCN(c3ccc(C(=O)NS(=O)(=O)c4ccc(NCC5CCOCC5)c([N+](=O)[O-])c4)c(Oc4cnc5[nH]ccc5c4)c3)CC2)=C(c2ccc(Cl)cc2)C1 [Venetoclax] + C[C@@H](Nc1cc(F)cc(F)c1)c1cc(C(=O)N(C)C)cc2c(=O)cc(N3CCOCC3)oc12 [AZD8186] (first compound max 1 µM, 7x7, partner max 3 µM) | -0.0171
* Cc1c2c(nn1C)CSCc1cc(n(C)n1)CSc1cc(c3ccccc3c1)OCCCc1c(C(=O)O)n(C)c3c-2c(Cl)ccc13 [AZD5991] + C=CCn1c(=O)c2cnc(Nc3ccc(N4CCN(C)CC4)cc3)nc2n1-c1cccc(C(C)(C)O)n1 [AZD1775] (first compound max 1 µM, partner max 1 µM) | -0.0346
* C[C@@H]1COCCN1c1cc(C2([S@](C)(=N)=O)CC2)nc(-c2ccnc3[nH]ccc23)n1 [AZD6738] + O=C(c1cc(Cc2n[nH]c(=O)c3ccccc23)ccc1F)N1CCN(C(=O)C2CC2)CC1 [Olaparib] (first compound max 10 µM, 7x7, partner max 10 µM) | 0.0511

The record that follows has no Bliss excess shown yet.
Prompt line: # value lookup — system NB13 (Neuroblastoma), readout Bliss excess, item C[C@@H]1COCCN1c1cc(C2([S@](C)(=N)=O)CC2)nc(-c2ccnc3[nH]ccc23)n1 [AZD6738] + C1CC(C1)(C(=O)[O-])C(=O)[O-].N.N.[Pt+2] [Carboplatin] (first compound max 10 µM, 7x7, partner max 10 µM)
Response line: -0.0955
